Record form. Attribute: pIC50. Fill in for each entry.
SYSTEM: Inosine-5'-monophosphate dehydrogenase (Cryptococcus neoformans var. neoformans serotype D (strain JEC21 /ATCC MYA-565) (Filobasidiella neoformans), UniProt Q5KP44)
Sequence (Q5KP44 whole entry): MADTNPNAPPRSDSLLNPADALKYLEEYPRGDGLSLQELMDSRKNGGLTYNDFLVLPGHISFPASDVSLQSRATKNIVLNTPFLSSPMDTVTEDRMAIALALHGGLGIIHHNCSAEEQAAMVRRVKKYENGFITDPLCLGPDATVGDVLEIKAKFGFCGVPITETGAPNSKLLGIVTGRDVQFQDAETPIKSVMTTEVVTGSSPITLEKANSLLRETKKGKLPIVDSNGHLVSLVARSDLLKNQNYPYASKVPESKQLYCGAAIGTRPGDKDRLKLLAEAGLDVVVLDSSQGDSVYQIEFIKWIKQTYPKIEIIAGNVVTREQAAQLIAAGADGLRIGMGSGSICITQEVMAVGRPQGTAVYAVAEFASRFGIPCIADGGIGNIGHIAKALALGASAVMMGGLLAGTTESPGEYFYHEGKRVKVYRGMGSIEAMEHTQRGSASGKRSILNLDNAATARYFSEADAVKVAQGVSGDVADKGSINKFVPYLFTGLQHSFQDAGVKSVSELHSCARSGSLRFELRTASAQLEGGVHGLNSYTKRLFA
EXPERIMENT: Inhibition of recombinant Cryptococcus neoformans His-tagged IMPDH expressed in Escherichia coli BL21 (DE3) using IMP as substrate in presence of NAD
In plain terms, pIC50 is the concentration in mol/L turned into minus its base-10 logarithm.

Prompt: Please look up its pIC50: O=S1(=O)C=C(Sc2nnc(-c3ccncc3)o2)c2ccccc21
Completion: 6.12

Prompt: Returns the measured pIC50 for the input compound. Input: COc1cccc(-c2nnc(SC3=CS(=O)(=O)c4ccccc43)o2)c1
Completion: 6.82

Prompt: Dear colleague, I am looking for the recorded pIC50 of the following compound: COc1ccccc1-c1nnc(SC2=CS(=O)(=O)c3ccccc32)o1
Completion: 6.32

Prompt: Please look up its pIC50: CC(=O)Nc1ccc(-c2nnc(SC3=CS(=O)(=O)c4ccccc43)o2)cc1
Completion: 6.80

Prompt: Please give the measured pIC50 for this compound: O=S1(=O)C=C(Sc2nnc(C3CCCCC3)o2)c2ccccc21
Completion: 6.17

Prompt: Could you share which pIC50 value was measured for COc1ccc(-c2nnc(SC3=CS(=O)(=O)c4ccccc43)o2)cc1 ?
Completion: 5.77
